Source listed as ChEMBL document CHEMBL1144546.

# collection of IC50 values tested on Rho-associated protein kinase (Homo sapiens, UniProt O75116+Q13464)
Field format: number, assumed nM, no unit text.

Record CCCN[C@H]1CC[C@@H](Nc2cccc3cnccc23)CC1 . Reported IC50: 180

Reported IC50 for CCCN[C@H]1CC[C@H](Nc2cccc3cnccc23)CC1 was 180

Consider c1cc(N[C@H]2CC[C@@H](NC3CC3)CC2)c2ccncc2c1 . Its measured IC50 is 195

So for Fc1cccc(F)c1CN1CCC(Nc2cccc3cnccc23)C1 (centres undefined) , the logged IC50 turned out to be 75
